PROCEDURE_DETAILS: xn = mol fraction of the nth substance listed, in the solute-free solvent
PROTOCOL_CONDITIONS: 308.15 K; x2 = 0.8
OBSERVABLE: solubility (g/100 g solution)
The answer should be a number; do not append a unit.

Consider the reported solubility (g/100 g solution) for these molecules:
[[record]]
molecule = "CCOC(=O)OC1=C(c2cc(C)ccc2C)C(=O)NC12CCC(OC)CC2 (configuration not stated) + CC(C)O + O"
meas_value = 10.2

[[record]]
molecule = "CCOc1ccccc1C(N)=O + CO + CC#N"
meas_value = 16.3


According to the records, this molecule Cc1ncc(CO)c(CO)c1O.Cl + O + CC(C)O displays solubility (g/100 g solution) of 15.8

According to the records, this molecule Cc1ncc(CO)c(CO)c1O.Cl + O + CC#N displays solubility (g/100 g solution) of 20

According to the records, this molecule CCOC(=O)OC1=C(c2cc(C)ccc2C)C(=O)NC12CCC(OC)CC2 (configuration not stated) + CCO + O displays solubility (g/100 g solution) of 12

According to the records, this molecule Cc1c(Br)c(=O)n(C2CCCC2)c2nc(Cl)ncc12 + CCOC(C)=O + CCO displays solubility (g/100 g solution) of 1.23

According to the records, this molecule CCOc1ccccc1C(N)=O + CC#N + CC(C)O displays solubility (g/100 g solution) of 9.2
